test system: cervical carcinoma SiHa; test: Cytotoxicity: inhibition of proliferation, sulforhodamine B staining; type: cell-based, human; settings: Homo sapiens, read-out: IC50 SiHa Average
readout-label: IC50 (pM)
Report as a plain number; the unit pM is understood.

Prompt: Name the recorded IC50 for COc1cc2cc(C(=O)N3CC(CCl)c4c3cc(O)c3ccccc43)[nH]c2c(OC)c1OC (centres unmarked) [Seco-CBI-TMI, reference compound] .
Response: 160

Prompt: Name the recorded IC50 for COc1ccc2sc(C(=O)N3CC(CCl)c4c3cc(O)c3oc(C)nc43)cc2c1 (centres unmarked) .
Response: 2700

Prompt: Name the recorded IC50 for `COc1cc2cc(C(=O)N3C[C@H](CCl)c4c3cc(O)c3oc(C)nc43)[nH]c2c(OC)c1OC` .
Response: 14000

Prompt: Name the recorded IC50 for CC(=O)Nc1ccc2nc(C(=O)N3CC(CCl)c4c3cc(O)c3oc(C)nc43)cn2c1 (centres unmarked) .
Response: 13000

Prompt: Name the recorded IC50 for COc1ccc(/C=C/C(=O)N2CC(CCl)c3c2cc(O)c2oc(C)nc32)cc1O (centres unmarked) .
Response: 620

Prompt: Name the recorded IC50 for `COc1cc2cc(C(=O)N3C[C@@H](CCl)c4c3cc(O)c3oc(C)nc43)[nH]c2c(OC)c1OC` .
Response: 150

Prompt: Name the recorded IC50 for COc1cc2cc(C(=O)N3CC(CCl)c4c3cc(O)c3oc(C)nc43)[nH]c2c(OC)c1OC (centres unmarked) .
Response: 180

Prompt: Name the recorded IC50 for Cc1nc2c3c(cc(O)c2o1)N(C(=O)c1cc2cc(NC(=O)c4cc5cc(OCCN(C)C)ccc5[nH]4)ccc2[nH]1)CC3CCl (centres unmarked) .
Response: 2900

Prompt: Name the recorded IC50 for COc1ccc(/C=C/C(=O)Nc2ccc3[nH]c(C(=O)N4CC(CCl)c5c4cc(O)c4oc(C)nc54)cc3c2)cc1 (centres unmarked) .
Response: 690

Prompt: Name the recorded IC50 for COCCOc1ccc2[nH]c(C(=O)N3CC(CCl)c4c3cc(O)c3oc(C)nc43)cc2c1 (centres unmarked) .
Response: 200

###

Consider the following compounds; for each one, report its IC50.
system: ovarian carcinoma SKOV3; test: Cytotoxicity: inhibition of proliferation, sulforhodamine B staining; assay type: cell-based, human; details: Homo sapiens, SK-OV-3; Example 25, Table 4; DMSO stock diluted in series before addition; n=3-7; read-out: IC50 SKOV3 Average
Report as a plain number; the unit nM is understood.

Prompt: Name the recorded IC50 for CC(=O)Nc1ccc2nc(C(=O)N3CC(CCl)c4c3cc(O)c3oc(C)nc43)cn2c1 (stereo not shown) [Compound 74] .
Response: 16.4

Prompt: Name the recorded IC50 for COc1cc2cc(C(=O)N3C[C@H](CCl)c4c3cc(O)c3oc(C)nc43)[nH]c2c(OC)c1OC [Compound 83] .
Response: 33

Prompt: Name the recorded IC50 for COc1cc2cc(C(=O)N3CC(CCl)c4c3cc(O)c3ccccc43)[nH]c2c(OC)c1OC (stereo not shown) [Seco-CBI-TMI, reference compound] .
Response: 0.27

Prompt: Name the recorded IC50 for COc1ccc(/C=C/C(=O)N2CC(CCl)c3c2cc(O)c2oc(C)nc32)cc1O (stereo not shown) [Compound 59] .
Response: 0.5

From: patent US20220098215A1
